target: Vasopressin V2 receptor (Homo sapiens); assay: Inhibitory activity of the human V2 receptor was assessed by the accumulation of cAMP in transfected HEK293 cells.; format: functional, cell-based
quantity.name: IC50 (µM)
// note: answer is a bare numeric in µM

Cc1ccc(-c2ccccc2C(=O)Nc2ccc(C(=O)N3CCCc4c[nH]c5cccc3c45)cc2)cc1    0.07

Query (compound): O=C(Nc1ccc(C(=O)N2CCCc3c[nH]c4cccc2c34)cc1)c1ccccc1-c1ccccc1 ; field requested: IC50
0.07

Give its IC50 value. Item: O=C(Nc1ccc(C(=O)N2CCCc3c[nH]c4cccc2c34)c(Cl)c1)c1ccccc1-c1ccccc1
0.33

Fill in the blank: the reported IC50 of Cc1ccc(F)cc1C(=O)Nc1ccc(C(=O)N2Cc3cccn3Cc3ccccc32)c(Cl)c1 is ____.
0.091

----------
target: Vasopressin V2 receptor (Homo sapiens, UniProt P30518); experiment: Displacement of [3H]AVP from human V2 receptors expressed in HEK293 cells; type: cell-based
Sequence (P30518 whole entry): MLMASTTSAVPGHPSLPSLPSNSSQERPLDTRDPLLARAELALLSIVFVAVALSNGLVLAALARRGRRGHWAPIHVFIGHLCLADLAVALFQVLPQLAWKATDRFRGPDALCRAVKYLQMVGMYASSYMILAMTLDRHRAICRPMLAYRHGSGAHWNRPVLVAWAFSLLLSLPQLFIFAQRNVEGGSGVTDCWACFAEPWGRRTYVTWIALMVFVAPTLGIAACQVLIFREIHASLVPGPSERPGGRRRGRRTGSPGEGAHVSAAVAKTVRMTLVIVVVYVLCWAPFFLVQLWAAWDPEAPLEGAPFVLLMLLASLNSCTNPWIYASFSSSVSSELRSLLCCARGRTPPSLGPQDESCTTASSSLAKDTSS
quantity.name: pIC50
Give only the number. pIC50 is defined as minus log10 of concentration in molar units.

Here's what some known entries look like.
Cc1c(F)cccc1C(=O)Nc1ccc(C(=O)N2CCCc3c[nH]c4cccc2c34)cc1    6.74
CCOC(=O)Cn1cc2c3c(cccc31)N(C(=O)c1ccc(NC(=O)c3ccccc3-c3ccc(C)cc3)cc1)CCC2    6.26
CC(=O)n1cc2c3c(cccc31)N(C(=O)c1ccc(NC(=O)c3ccccc3-c3ccc(C)cc3)cc1)CCC2    6.77

Which value of pIC50 has been reported for O=C(Nc1ccc(C(=O)N2CCCc3c[nH]c4cccc2c34)cc1)c1ccccc1-c1ccccc1 in the records?
7.70

Please give the measured pIC50 for this compound: O=C(Nc1ccc(C(=O)N2CCCC3C(=O)Nc4cccc2c43)cc1)c1ccccc1-c1ccccc1 (stereo not drawn)
8.10

Field request: pIC50 | item: O=C(Nc1ccc(C(=O)N2CCCc3c[nH]c4cccc2c34)c(Cl)c1)c1ccccc1-c1ccccc1
7.30

Return reported pIC50; argument: O=C(Nc1ccc(C(=O)N2CCCc3c[nH]c4cccc2c34)cc1Cl)c1ccccc1-c1ccccc1
7.82

Name the reported pIC50 value associated with the compound Cc1ccc(F)cc1C(=O)Nc1ccc(C(=O)N2CCCc3c[nH]c4cccc2c34)cc1
6.72

Using the record for Cc1ccc(-c2ccccc2C(=O)Nc2ccc(C(=O)N3CCCc4cn(C)c5cccc3c45)cc2)cc1 , report its pIC50.
6.68

Need pIC50, item O=C(Nc1ccc(C(=O)N2CCCc3c(Cl)[nH]c4cccc2c34)cc1)c1ccccc1-c1ccccc1
7.36

----------
molecular target: UniProt Q00788
Sequence (Q00788 whole entry): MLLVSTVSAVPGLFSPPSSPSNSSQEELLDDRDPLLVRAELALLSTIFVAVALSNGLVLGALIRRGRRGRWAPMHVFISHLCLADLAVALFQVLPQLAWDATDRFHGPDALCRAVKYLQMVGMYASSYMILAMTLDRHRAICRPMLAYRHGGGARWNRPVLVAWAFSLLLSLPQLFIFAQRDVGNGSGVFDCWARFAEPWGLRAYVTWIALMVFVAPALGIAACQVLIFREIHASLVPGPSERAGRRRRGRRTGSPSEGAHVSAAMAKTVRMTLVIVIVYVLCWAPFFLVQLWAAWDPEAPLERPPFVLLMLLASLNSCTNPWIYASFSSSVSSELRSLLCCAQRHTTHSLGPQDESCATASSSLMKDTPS
quantity.name: pIC50
Just so you know, pIC50 here is -log10 of the concentration in molar units; reply with that number alone.

Under UniProt Q00788: pIC50 value of O=C(Nc1ccc(C(=O)N2CCCc3c[nH]c4cccc2c34)cc1)c1ccccc1-c1ccccc1 ?
9.00

----------
biological target: Vasopressin V1a receptor (Homo sapiens, UniProt P37288)
Sequence (P37288 whole entry): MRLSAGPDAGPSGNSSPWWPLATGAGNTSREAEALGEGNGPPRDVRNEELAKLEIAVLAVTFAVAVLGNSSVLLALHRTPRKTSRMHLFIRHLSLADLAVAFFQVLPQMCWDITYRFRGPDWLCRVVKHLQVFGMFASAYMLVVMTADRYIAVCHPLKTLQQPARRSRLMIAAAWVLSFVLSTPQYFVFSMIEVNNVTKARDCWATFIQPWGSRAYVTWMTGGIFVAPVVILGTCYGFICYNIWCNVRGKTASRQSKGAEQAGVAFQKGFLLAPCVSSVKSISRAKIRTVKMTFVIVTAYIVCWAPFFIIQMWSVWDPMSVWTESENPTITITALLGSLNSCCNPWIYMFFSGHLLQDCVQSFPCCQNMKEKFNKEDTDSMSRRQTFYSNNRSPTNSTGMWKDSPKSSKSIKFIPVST
quantity.name: pIC50
The read-out pIC50 is expressed as -log10 of concentration in moles per litre.

Requested read-out: pIC50. Entry: O=C(Nc1ccc(C(=O)N2CCCc3c[nH]c4cccc2c34)cc1)c1ccccc1-c1ccccc1
5.51

----------
// values below are reported IC50
target: Vasopressin V2 receptor (Homo sapiens, UniProt P30518); assay: Displacement of [3H]AVP from human V2 receptors expressed in HEK293 cells; format: cell-based
Give the number; nM is assumed, so skip it.

Example compounds with recorded IC50:
Cc1ccc(-c2ccccc2C(=O)Nc2ccc(C(=O)N3CCCc4c[nH]c5cccc3c45)cc2)cc1    11
O=C(Nc1ccc(C(=O)N2CCCc3c(S(=O)(=O)O)[nH]c4cccc2c34)cc1Cl)c1ccccc1-c1ccccc1    12

Reported IC50, compound O=C(Nc1ccc(C(=O)N2CCCc3c(S(=O)(=O)O)[nH]c4cccc2c34)cc1)c1ccccc1-c1ccccc1 : ____
13
